# Tested on: H. pylori ATCC 700684 (clarithromycin resistant)
# assay_remarks: MIC/MBC by broth microdilution, strain ATCC 700684 (CLR-R)
# Format: cell-based
# assay_conditions: Helicobacter pylori, ATCC700684, 72 h
assay_metric: MIC (µg/mL)
Give bare numbers, in µg/mL.

Observe how each entry below is paired with its result.
Q: Param item = COCCOC(=O)C1=C(C)NC(C)=C(C(=O)OC(C)C)C1c1cccc([N+](=O)[O-])c1 (stereo not shown) [Nimodipine] ; retrieve measured MIC.
Result: 4

Q: Could you do the same for COC(=O)C1=C(C)NC(C)=C(C(=O)OCC(C)C)C1c1ccccc1[N+](=O)[O-] (stereo not shown) [Nisoldipine] , please?
Result: 4

Q: Also, COC(=O)C1=C(C)NC(C)=C(C(=O)OCCN(C)Cc2ccccc2)C1c1cccc([N+](=O)[O-])c1 (stereo not shown) [Nicardipine] please.
Result: 8

Now for another entry.
Q: # get_value(readout='MIC', item= CCOC(=O)C1=C(C)NC(C)=C(C(=O)OC)C1c1cccc([N+](=O)[O-])c1 (stereo not shown) [Nitrendipine] )
Result: 8

====

# System: H. pylori ATCC 700684 (clarithromycin resistant)
# assay_remarks: MIC/MBC by broth microdilution, strain ATCC 700684 (CLR-R)
# Format: cell-based
# assay_conditions: Helicobacter pylori, ATCC700684
assay_metric: MBC (µg/mL)
Give bare numbers, in µg/mL.

Reference set (3 entries):
Q: // MBC lookup, key: COC(=O)C1=C(C)NC(C)=C(C(=O)OC(C)(C)CN(C)CCC(c2ccccc2)c2ccccc2)C1c1cccc([N+](=O)[O-])c1 (centres unmarked)
Result: 8

Q: Again, but for COCCOC(=O)C1=C(C)NC(C)=C(C(=O)OC(C)C)C1c1cccc([N+](=O)[O-])c1 (centres unmarked)
Result: 4

Q: Then what about the compound COC(=O)C1=C(C)NC(C)=C(C(=O)OC)C1c1ccccc1[N+](=O)[O-] ?
Result: 8

Provide each entry's MBC from the list below.
1. Cc1ncc([N+](=O)[O-])n1CCO
2. CC[C@H]1OC(=O)[C@H](C)[C@@H](O[C@H]2C[C@@](C)(OC)[C@@H](O)[C@H](C)O2)[C@H](C)[C@@H](O[C@@H]2O[C@H](C)C[C@H](N(C)C)[C@H]2O)[C@](C)(OC)C[C@@H](C)C(=O)[C@H](C)[C@@H](O)[C@]1(C)O
3. COC(=O)C1=C(C)NC(C)=C(C(=O)OCC(C)C)C1c1ccccc1[N+](=O)[O-] (centres unmarked)

Result:
[2, 32, 4]

Provide MBC values for the following items, in order.
1. CCOC(=O)C1=C(C)NC(C)=C(C(=O)OC)C1c1cccc([N+](=O)[O-])c1 (centres unmarked)
2. COC(=O)C1=C(C)NC(C)=C(C(=O)OCCN(C)Cc2ccccc2)C1c1cccc([N+](=O)[O-])c1 (centres unmarked)

Result:
[8, 8]

====

# tested_on: H. pylori HsrA response regulator (Helicobacter pylori)
# Sequence (O25684 entry or part of it): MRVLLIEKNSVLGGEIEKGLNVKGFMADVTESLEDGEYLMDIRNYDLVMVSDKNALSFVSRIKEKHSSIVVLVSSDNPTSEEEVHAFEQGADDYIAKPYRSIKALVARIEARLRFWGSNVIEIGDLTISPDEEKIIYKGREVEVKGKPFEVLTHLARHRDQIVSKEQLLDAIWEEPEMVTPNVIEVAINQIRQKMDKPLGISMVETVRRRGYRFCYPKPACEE
# assay_remarks: biochemical
# Format: binding
# assay_conditions: ITC, 25 °C, pH 8; absolute error 0.06
assay_metric: n (binding stoichiometry)
Give bare numbers.

Q: Form field: reported n (binding stoichiometry) of COC(=O)C1=C(C)NC(C)=C(C(=O)OC(C)(C)CN(C)CCC(c2ccccc2)c2ccccc2)C1c1cccc([N+](=O)[O-])c1 (centres unmarked) [Lercanidipine]
Result: 0.81

Q: Check CCOC(=O)C1=C(C)NC(C)=C(C(=O)OC)C1c1cccc([N+](=O)[O-])c1 (centres unmarked) [Nitrendipine] too.
Result: 0.75

Q: And then COCCOC(=O)C1=C(C)NC(C)=C(C(=O)OC(C)C)C1c1cccc([N+](=O)[O-])c1 (centres unmarked) [Nimodipine] , what is it?
Result: 0.71

Q: What do you have for COC(=O)C1=C(C)NC(C)=C(C(=O)OCC(C)C)C1c1ccccc1[N+](=O)[O-] (centres unmarked) [Nisoldipine] ?
Result: 0.70

Turning now to a further molecule:
Q: Name the reported n (binding stoichiometry) value associated with the molecule COC(=O)C1=C(C)NC(C)=C(C(=O)OCCN(C)Cc2ccccc2)C1c1cccc([N+](=O)[O-])c1 (centres unmarked) [Nicardipine]
Result: 0.72
